All figures here come from PubChem BioAssay (NCI).

System: MALME-3M melanoma
Assay: NCI tumour cell line growth inhibition, 48 h
measured-endpoint: TGI (µM)
Kindly answer with a numeric value in µM, unit omitted.

Recorded results for 3 compounds are shown here.
CCCCCCC(C)c1ccc2c(c1)C(=O)c1nc3ccncc3c(=O)n1-2 (stereo not drawn) | 0.9
Cc1c(-c2ccc(O)c(O)c2)oc(=O)c2c(O)cc(O)cc12 | 10.3
COC(O)C(=O)c1c2c(cc3c1CCC3)CCCC2 (stereo not drawn) | 27.8

Q) Can you share its TGI? I mean this compound: C=C1C(=O)C2=C[C@H]1C[C@H](O)C(=O)[C@]1(C)CCCC(C)(C)[C@H]1C[C@H]2O
A) 2.05

Q) Can you check C=C[C@H]1CN2CCc3c([nH]c4cc(O)ccc34)[C@@H]2C[C@@H]1C[C@H]1c2[nH]c3ccccc3c2CCN1C next?
A) 26.9

Q) Can you check COc1ccc2oc(=O)cc(C3c4ccc([nH]4)C(c4cc(=O)oc5ccc(OC)cc45)c4ccc([nH]4)C(c4cc(=O)oc5ccc(OC)cc45)c4ccc([nH]4)C(c4cc(=O)oc5ccc(OC)cc45)c4ccc3[nH]4)c2c1 (stereo not drawn) next?
A) 3.73

Q) Can you check O=c1c2sc3ccccc3c2nnn1-c1ccc(F)c(Cl)c1 next?
A) 54.6

Q) Can you check CC(C)(C)C1CCC2c3c([nH]c4ccccc34)C3C(=O)N(c4ccc(C(=O)O)cc4)C(=O)C3C2C1 (stereo not drawn) next?
A) 28.9

Q) Can you check Clc1ccc(C2c3ccccc3-c3nc4ccccc4n32)cc1 (stereo not drawn) next?
A) 82.3

Q) Can you check COc1ccc2c(c1)-c1c(c3cc(OC)ccc3n1CCN1CCOCC1)CC2 next?
A) 79.2
